Values were extracted from ChEMBL document CHEMBL4011655.

Give measured GI50 for each item. Keep answers brief.
Tested on: 786-0
Test: Growth inhibition of human 786-O cells after 72 hrs by Cell-Titer Glo assay
Format: functional
Settings: 786-0, 72 h
One number for each entry, in nM.

Guide cases for GI50, answers given:
[
  {
    "compound.string": "CC[C@H](C)[C@H]1C(=O)N2CCC[C@H]2C(=O)O[C@H](C(C)(C)C)C[C@@H](C)C[C@H](O)[C@H](C)C(=O)N2CCC(CC2)C(=O)N[C@@H](Cc2ccc(-c3ccccc3)cc2)C(=O)N(C)[C@@H](C)C(=O)N1C",
    "unit": "nM",
    "GI50": 120
  },
  {
    "compound.string": "CO[C@@]12[C@H](COC(N)=O)C3=C(C(=O)C(C)=C(N)C3=O)N1C[C@@H]1N[C@@H]12",
    "unit": "nM",
    "GI50": 210
  }
]

Proceed to the following item.
Notebook: pull reported GI50 for 786-0, entry CC[C@H](C)[C@H]1C(=O)N2CCC[C@H]2C(=O)O[C@H](C(C)(C)C)C[C@@H](C)C[C@H](O)[C@H](C)C2=N[C@@H](/C=C(\C)C(=O)N[C@@H](Cc3ccc(OC)cc3)C(=O)N(C)[C@@H](C)C(=O)N1C)CS2
41
